Measured logP values are reported for all entries that follow.
Respond with the number and no other words.

As a guide, the following entries are already answered.
[[record]]
compound = "C=C[C@@]12COC(=O)C(=C)[C@@H]1[C@H]1OC(=O)C(=C)[C@@H]1[C@@H](O)C2"
reported_metric = "logP"
test_result = 0.31

[[record]]
compound = "c1ccc(-c2cccs2)cc1"
reported_metric = "logP"
test_result = 3.74

[[record]]
compound = "Clc1cc(Cl)c(-c2c(Cl)ccc(Cl)c2Cl)cc1Cl"
reported_metric = "logP"
test_result = 7.28

[[record]]
compound = "Cc1ccc2c(c1)nc(N)n2C"
reported_metric = "logP"
test_result = 1.47

[[record]]
compound = "CCc1cccc(OCC(=O)O)c1"
reported_metric = "logP"
test_result = 2.25

[[record]]
compound = "OCC(O)c1ccc(O)c(O)c1 (stereo not given)"
reported_metric = "logP"
test_result = -1.01


Query block: Fill blank: measured logP of the compound `CCCCOc1ccc(OC(=O)NC)cc1` is ____.
Result block: 2.86

Query block: logP for `O=C1c2ccccc2C(=O)C1c1ccccc1` ?
Result block: 2.9

Query block: What does the record list as logP for `OCC(CO)(CBr)CBr` ?
Result block: 1.06

Query block: Please give the measured logP for this compound: `CCc1ccc(OC(C)=O)cc1`
Result block: 2.56

Query block: Find the recorded logP belonging to `O=[N+]([O-])c1ccc(F)cc1` and report it.
Result block: 1.8

Query block: Dear colleague, I am looking for the recorded logP of the following compound: `CC(=O)Nc1ccc2[nH]c(C)cc2c1`
Result block: 1.21

Query block: What measured logP goes with CC(O)CNCC(C)O (stereo not given) ?
Result block: -0.82

Query block: Item under review: `O=Cc1ccc[nH]1` . Reported logP?
Result block: 0.64

Query block: Given `NC(=O)CCCc1ccccc1` , state its recorded logP.
Result block: 1.41

====

Measured logP, listed per entry for reference.
Simply state the number, no unit and no words.

Previously resolved entries follow.
[[record]]
molecule = "NCCCNC(=O)c1ccccc1"
test_result = 0.3

[[record]]
molecule = "O=C1CCCCCCCCCCC1"
test_result = 4.1

[[record]]
molecule = "CC(C)[C@@H](N)Cc1ccccc1"
test_result = 2.59

[[record]]
molecule = "CC(C)OC(=O)Nc1ccccc1"
test_result = 2.6

[[record]]
molecule = "CN1CCc2cccc3c2[C@H]1Cc1ccc(O)c(O)c1-3"
test_result = 2.3

[[record]]
molecule = "NC(=O)Nc1ccc(Cl)cc1"
test_result = 1.8

[[record]]
molecule = "CNS(=O)(=O)c1ccc(S(I)=C(N(C)C)N(C)C)cc1 (stereo not drawn)"
test_result = -1.4


Query block: Give its logP value. Item: `CCCCBr`
Result block: 2.75

====

Reported values of logP for individual entries
A bare number is all that is needed in reply.

[[record]]
molecule = "c1ccc(-n2cccc2)cc1"
reported_metric = "logP"
test_result = 3.08

[[record]]
molecule = "CCN(CCO)c1ccccc1"
reported_metric = "logP"
test_result = 2.1

[[record]]
molecule = "CC(C)Nc1nc(NC(C)C)nc(SC(F)F)n1"
reported_metric = "logP"
test_result = 4.25

[[record]]
molecule = "FC(F)(F)c1nc2c(Br)c(Br)c(Br)c(Br)c2[nH]1"
reported_metric = "logP"
test_result = 4.81

[[record]]
molecule = "CCC1(c2ccccc2)C(=O)NCNC1=O"
reported_metric = "logP"
test_result = 0.91

[[record]]
molecule = "Cn1ccc(=O)n(C)c1=O"
reported_metric = "logP"
test_result = -0.54

[[record]]
molecule = "COCC(c1c(O)c2ccccc2oc1=O)c1c(O)c2ccccc2oc1=O"
reported_metric = "logP"
test_result = 1.38

[[record]]
molecule = "CN(C)N=Nc1ccccc1C(N)=O"
reported_metric = "logP"
test_result = 1.73


Query block: Reported logP for `NC(=S)c1ccccc1N` : what is it?
Result block: 0.99

Query block: Reported logP for `Nc1ccc(/N=N/c2ccccc2)cc1` : what is it?
Result block: 3.41

Query block: So what does the record say about logP for `Nc1ccccc1S` ?
Result block: 1.43

Query block: Which logP value is on record for `O=C(O)CCc1c[nH]c2ccccc12` ?
Result block: 1.75

Query block: Entry `Nc1nc(N)nc(-c2ccccc2[N+](=O)[O-])n1` : reported logP = ?
Result block: 0.49

Query block: Reported logP for `CN(C)N=Nc1ccc(CCCC(=O)O)cc1` : what is it?
Result block: 2.62

Query block: Which measured logP value corresponds to `Nc1ccc(C(=O)Oc2cccc(F)c2)c(O)c1` ?
Result block: 3.42

Query block: For the molecule shown here, COC1CC(OC2CCC3(C)C(CCC4C3CC(O)C3(C)C(C5=CC(=O)OC5)CCC43O)C2)OC(C)C1OC1CC(O)C(OC2CC(O)C(OC)C(C)O2)C(C)O1 (centres undefined) , give the reported logP.
Result block: 2.14

Query block: Fill in the blank: the reported logP of CC(C)(O)C(C(=O)O)c1ccc(-c2ccccc2)cc1 (centres undefined) is ____.
Result block: 3.25
